# credit: ChEMBL document CHEMBL3433997

Entries and their inhibition
- measured target: Glucose transporter (Leishmania mexicana)
- assay method text: ST_JUDE_LEISH: Cytotoxicity at 2uM final concentration against transgenic Leishmania Mexicana promastigotes LmGT2 that are glucose transport deficient and complemented with the L. Mexicana glucose transporter 2. Activity is measured by DNA content using SYBR green in vitro
- Format: functional
Answer format: numeric, % implied, no suffix.

{"columns": ["molecule", "measured target", "inhibition, %"],
 "data": [
  ["CC(=NNC(S)=Nc1ccccc1Cl)c1ccccn1", "Glucose transporter (Leishmania mexicana)", 12.2],
  ["CCS(=O)(=O)Nc1ccc2[nH]cc(C3CCN(CCC4CCN(C(=O)/C=C/c5ccc(Cl)c(Cl)c5)CC4)CC3)c2c1", "Glucose transporter (Leishmania mexicana)", 1.91],
  ["Cc1cc(C(=O)Nc2nc(-c3ccccn3)nc3ccsc23)no1", "Glucose transporter (Leishmania mexicana)", 68.5],
  ["CC(Cc1ccc(CN(CC(N)=O)Cc2ccc(CC(C)NCCc3cccc(Cl)c3)cc2)cc1)NCCc1cccc(Cl)c1 (stereo not given)", "Glucose transporter (Leishmania mexicana)", 7.2],
  ["Cc1ccc(NC(=O)c2cccc(CN3CCCN(Cc4cccc(O)c4)CC3)c2)cc1", "Glucose transporter (Leishmania mexicana)", 0.25],
  ["N=C(N)c1ccc(NC(=O)Cc2nc3cc(C(=N)N)ccc3[nH]2)cc1", "Glucose transporter (Leishmania mexicana)", -0.08]
]}

The molecule listed as "CN1CCN(CCCN(Cc2csc(-c3ccc(CNCc4ccccc4)cc3)n2)C(=O)Nc2ccc3ccccc3c2)CC1" has a reported inhibition of 0.42

The molecule listed as COC(=O)Nc1cc(C(F)(F)F)ccc1N1CCCC(NS(=O)(=O)c2ccc(C(C)(C)C)cc2)C1 (stereo not given) has a reported inhibition of 7.77
